conditions: in chloroform, 279.65 K
Metric name: solubility (mole fraction)

[[record]]
smiles_repr = "C=CC(=O)NCO"
metric_name = "solubility (mole fraction)"
quantitative_result = 0.0011


---

conditions: in ethyl acetate, 278.55 K
Metric name: solubility (mole fraction)

[[record]]
smiles_repr = "C=CC(=O)NCO"
metric_name = "solubility (mole fraction)"
quantitative_result = 0.0109


---

conditions: in pyridine, 306.25 K
Metric name: solubility (mole fraction)

[[record]]
smiles_repr = "C=CC(=O)NCO"
metric_name = "solubility (mole fraction)"
quantitative_result = 0.401


---

details: in toluene, 305.35 K
Metric name: solubility (mole fraction)

[[record]]
smiles_repr = "C=CC(=O)NCO"
metric_name = "solubility (mole fraction)"
quantitative_result = 0.002


---

settings: in chloroform, 282.35 K
Metric name: solubility (mole fraction)

[[record]]
smiles_repr = "C=CC(=O)NCO"
metric_name = "solubility (mole fraction)"
quantitative_result = 0.0013


---

details: in chloroform, 286.05 K
Metric name: solubility (mole fraction)

[[record]]
smiles_repr = "C=CC(=O)NCO"
quantitative_result = 0.0015


---

details: in acetonitrile, 298.15 K
Metric name: solubility (mole fraction)

[[record]]
smiles_repr = "C=CC(=O)NCO"
metric_name = "solubility (mole fraction)"
quantitative_result = 0.0499


---

conditions: in toluene, 291.55 K
Metric name: solubility (mole fraction)

[[record]]
smiles_repr = "C=CC(=O)NCO"
quantitative_result = 0.0009


---

conditions: in pyridine, 278.55 K
Metric name: solubility (mole fraction)

[[record]]
smiles_repr = "C=CC(=O)NCO"
metric_name = "solubility (mole fraction)"
quantitative_result = 0.232


---

conditions: in ethyl acetate, 300.95 K
Metric name: solubility (mole fraction)

[[record]]
smiles_repr = "C=CC(=O)NCO"
result = 0.0294

